TEST DESCRIPTION: Brain penetration in non-tumor bearing mice
Type: in vivo
EXPERIMENTAL PARAMETERS: brain to plasma percentage
Provide the recorded Brain Penetration (% of plasma) for the entries that follow.

>  <SMILES STR>
C#Cc1cccc(Nc2ncnc3cc4c(cc23)OCCO4)c1

>  <VALUE OBSERVED>
64.8 % of plasma

$$$$
>  <SMILES STR>
C#Cc1cccc(Nc2ncnc3cc4c(cc23)OCCO4)c1F

>  <VALUE OBSERVED>
84.3 % of plasma

$$$$
>  <SMILES STR>
Fc1c(I)cccc1Nc1ncnc2cc3c(cc12)OCCO3

>  <VALUE OBSERVED>
167.6 % of plasma

$$$$
>  <SMILES STR>
Fc1c(Cl)cccc1Nc1ncnc2cc3c(cc12)OCCO3

>  <VALUE OBSERVED>
106.4 % of plasma

$$$$

[ask] May I ask what Brain Penetration (% of plasma) has been recorded for `Fc1cccc(Nc2ncnc3cc4c(cc23)OCCO4)c1F` ?
[reply] 106.2 % of plasma

* * *

Provide the recorded pIC50 for the entries that follow.
Tested on: HCC827 (EGFR exon 19 deletion)
TEST DESCRIPTION: Cellular IC50, Cell Titer Glo, HCC827 cell line
Assay type: cell-based
EXPERIMENTAL PARAMETERS: Homo sapiens, HCC827 cells, 72 hours
Numbers only, as −log10 of the molar value.

Before answering, review these 5 worked examples.
>  <COMPOUND>
CN1CC2(C1)CN(C[C@H]1COc3cc4ncnc(Nc5cccc(Br)c5F)c4cc3O1)C2

>  <pIC50>
8.23

$$$$
>  <COMPOUND>
CN1CCC12CN(C[C@H]1COc3cc4ncnc(Nc5cccc(Br)c5F)c4cc3O1)C2

>  <pIC50>
8.15

$$$$
>  <COMPOUND>
CN1CCN(C[C@H]2COc3cc4ncnc(Nc5cccc(Br)c5F)c4cc3O2)CC(F)(F)C1

>  <pIC50>
7.30

$$$$
>  <COMPOUND>
CN1CCN(C[C@H]2COc3cc4ncnc(Nc5cccc(Br)c5F)c4cc3O2)CCC1C(F)(F)F (stereo partly drawn)

>  <pIC50>
7.43

$$$$
>  <COMPOUND>
CN1CCC2CN(C[C@H]3COc4cc5ncnc(Nc6cccc(Br)c6F)c5cc4O3)CC21 (stereo partly drawn)

>  <pIC50>
8.23

$$$$

Continue with the compound presented below.
[ask] Record lookup: for HCC827 (EGFR exon 19 deletion), what pIC50 belongs to CN1CC2CN(C[C@H]3COc4cc5ncnc(Nc6cccc(Br)c6F)c5cc4O3)CC2C1 (stereo partly drawn) ?
[reply] 7.84

* * *

TEST DESCRIPTION: Brain penetration in non-tumor bearing mice
Format: in vivo
EXPERIMENTAL PARAMETERS: unbound ratio of drug in brain to plasma
I would appreciate it if you labelled entries 1 (yes) when Kpuu (Avg) is 1 or higher, otherwise 0 (no).

Would you please look over these solved cases?
>  <COMPOUND>
Fc1c(I)cccc1Nc1ncnc2cc3c(cc12)OCCO3 [JGK042]

>  <CAT>
1 (yes)

$$$$
>  <COMPOUND>
C#Cc1cccc(Nc2ncnc3cc4c(cc23)OCCO4)c1 [JGK005]

>  <CAT>
0 (no)

$$$$
>  <COMPOUND>
C#Cc1cccc(Nc2ncnc3cc4c(cc23)OCCO4)c1F [JGK038]

>  <CAT>
0 (no)

$$$$
>  <COMPOUND>
Fc1cccc(Nc2ncnc3cc4c(cc23)OCCO4)c1F [JGK028]

>  <CAT>
1 (yes)

$$$$

Attention now shifts to the item below.
[ask] Reported Kpuu (Avg) at or above 1? Fc1c(Cl)cccc1Nc1ncnc2cc3c(cc12)OCCO3 [JGK010]
[reply] 1 (yes)
